# Tested on: Human immunodeficiency virus 1
# test-summary: Antiviral activity against X4 tropic HIV1 HXB2 assessed as inhibition of single cycle viral infection in human TZM-bl cells preincubated for 30 mins followed by addition of cells measured after 3 days by luciferase reporter gene assay
# Assay type: functional, cell-based
# assay-setup: tzm-bl
Would you mind telling me the reported IC50 of each entry?
Reply with a number, then the unit it belongs to.

(Q) Sample Cc1ccc(-c2ccc(C(=O)NC(c3nc(C)c(CO)[nH]3)C3CCCCN3)[nH]2)cc1F (stereo in doubt; 37B) — what was its IC50?
(A) 16.9 µM

(Q) How about Cc1nc(C(NC(=O)c2ccc(-c3ccc(Cl)cc3)[nH]2)C2CCCCN2)[nH]c1CO (stereo in doubt; 35B) ?
(A) 15.8 µM

(Q) How about Cc1nc(C(NC(=O)c2ccc(-c3ccc(Cl)c(F)c3)[nH]2)C2CCCCN2)[nH]c1CO (stereo in doubt; 36B) ?
(A) 16 µM
